Biological target: hCB1R (Homo sapiens, UniProt P21554)
Construct: expressed in transfected cells; host or cells: CHO-K1
Sequence (P21554 whole entry): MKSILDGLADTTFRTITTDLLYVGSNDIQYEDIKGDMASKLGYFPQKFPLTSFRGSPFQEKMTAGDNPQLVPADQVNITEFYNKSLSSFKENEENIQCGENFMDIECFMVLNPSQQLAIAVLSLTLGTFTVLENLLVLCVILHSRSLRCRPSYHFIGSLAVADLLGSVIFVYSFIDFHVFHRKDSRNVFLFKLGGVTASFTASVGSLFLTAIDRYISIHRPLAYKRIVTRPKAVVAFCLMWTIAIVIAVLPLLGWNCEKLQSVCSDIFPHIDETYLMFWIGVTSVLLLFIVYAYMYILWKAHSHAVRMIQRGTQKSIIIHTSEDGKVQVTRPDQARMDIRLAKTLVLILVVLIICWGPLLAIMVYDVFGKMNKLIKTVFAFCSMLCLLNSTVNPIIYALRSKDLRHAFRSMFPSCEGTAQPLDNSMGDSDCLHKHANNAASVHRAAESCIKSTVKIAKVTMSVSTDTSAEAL
Assay: cell-based
Assay type: cell-based
Conditions: read-out: CB1R βarrestin2 recruitment Emax
Listed here are compounds together with their documented Emax.
# number only, unit % dropped from output

{"Compound": "O=C(Nc1cccc2ccccc12)c1cn(Cc2ccc(F)cc2)c2ccccc12", "Target desc": "hCB1R (Homo sapiens, UniProt P21554)", "Scale unit": "%", "Emax": 49}
{"Compound": "CC(C)C(NC(=O)c1nn(Cc2cccc(F)c2)c2ccccc12)C(N)=O (centres unmarked)", "Target desc": "hCB1R (Homo sapiens, UniProt P21554)", "Scale unit": "%", "Emax": 22}
{"Compound": "CCCCCn1cc(C(=O)c2cccc3ccccc23)cc1-c1ccccc1", "Target desc": "hCB1R (Homo sapiens, UniProt P21554)", "Scale unit": "%", "Emax": 27}

Q: Fill in: Emax of CCCCCn1c2ccccc2c2cc(C(=O)c3cccc4ccccc34)ccc21 is ___
A: 5.2

Q: Fill in: Emax of COC(=O)[C@@H](NC(=O)c1nn(CCCCF)c2ccccc12)C(C)(C)C is ___
A: 240

Q: Fill in: Emax of N#CCCCCn1cc(C(=O)c2cccc3ccccc23)c2ccccc21 is ___
A: 68

Q: Fill in: Emax of CCC(Cl)CCn1nc(C(=O)NC(C(N)=O)C(C)C)c2ccccc21 (centres unmarked) is ___
A: 340

Q: Fill in: Emax of O=C(Oc1cccc2cccnc12)c1nn(CCCCCF)c2ccccc12 is ___
A: 210

Q: Fill in: Emax of CC(C)CCn1cc(C(=O)c2ccc3ccccc3c2)c2ccccc21 [JWH 018 2'-naphthyl-N-(3-methylbutyl) isomer] is ___
A: 4.9

Q: Fill in: Emax of COC(=O)[C@H](Cc1ccccc1)NC(=O)c1cn(CCCCCF)c2ccccc12 is ___
A: 170

Q: Fill in: Emax of Cc1ccc(C(=O)c2cn(CCCCCCl)c3ccccc23)c2ccccc12 is ___
A: 17

====

Target: hCB2R (Homo sapiens, UniProt P34972)
Construct: host or cells: CHO-K1 (PathHunter)
Sequence (P34972 whole entry): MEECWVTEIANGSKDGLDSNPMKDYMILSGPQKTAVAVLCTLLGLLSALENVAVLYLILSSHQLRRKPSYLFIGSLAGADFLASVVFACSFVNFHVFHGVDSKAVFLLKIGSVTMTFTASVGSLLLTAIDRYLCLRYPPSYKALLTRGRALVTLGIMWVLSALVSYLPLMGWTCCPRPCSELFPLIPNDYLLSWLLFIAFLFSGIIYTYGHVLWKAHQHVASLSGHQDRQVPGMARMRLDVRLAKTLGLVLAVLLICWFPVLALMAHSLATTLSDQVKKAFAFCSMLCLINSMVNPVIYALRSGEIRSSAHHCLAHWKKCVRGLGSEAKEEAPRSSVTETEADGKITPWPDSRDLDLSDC
Test: HitHunter inhibition of FSK-stimulated cAMP, CB2R
Type: cell-based
Field: label. Allowed values: YES (EC50 < 3 nM) or NO (EC50 >= 3 nM).

{"Molecule": "CC(C)C(NC(=O)c1nn(Cc2ccccc2F)c2ccccc12)C(N)=O (centres unmarked)", "Group label": "YES"}
{"Molecule": "CC(C)C(NC(=O)c1nn(Cc2cccc(F)c2)c2ccccc12)C(N)=O (centres unmarked)", "Group label": "NO"}
{"Molecule": "O=C(c1ccc(Cl)c2ccccc12)c1cn(CCCCCF)c2ccccc12", "Group label": "YES"}

Q: Hello, I'm reviewing records and need to know if EC50 of N#CCCCCn1cc(C(=O)c2cccc3ccccc23)c2ccccc21 is below 3 nM. Could you check?
A: YES

Q: Hello, I'm reviewing records and need to know if EC50 of CCCCCn1cc(C(=O)c2cccc3ccccc23)cc1-c1ccccc1 is below 3 nM. Could you check?
A: NO

====

Molecular target: hCB2R (Homo sapiens, UniProt P34972)
Construct: host or cells: CHO-K1 (PathHunter)
Assay: [^3H]CP55,940 competition (radioligand displacement) binding to CB2R
Settings: bottom of the concentration–response curve; mean ± SEM
Listed here are compounds together with their documented CB2R [^3H]CP55,940 Emin.

{"Compound": "COC(=O)[C@H](Cc1ccccc1)NC(=O)c1cn(CCCCCF)c2ccccc12", "Result": "89 ± 6.3 %"}

Q: What measured CB2R [^3H]CP55,940 Emin is associated with CC(C)CCn1cc(C(=O)c2ccc3ccccc3c2)c2ccccc21 [JWH 018 2'-naphthyl-N-(3-methylbutyl) isomer] on hCB2R (Homo sapiens, UniProt P34972)?
A: 54 ± 3.5 %

Q: What measured CB2R [^3H]CP55,940 Emin is associated with CCCCCn1cc(C(=O)c2ccc(CCC)c3ccccc23)c2ccccc21 on hCB2R (Homo sapiens, UniProt P34972)?
A: 21 ± 1.7 %

Q: What measured CB2R [^3H]CP55,940 Emin is associated with CCCCCc1cc(O)c2c(c1)OC(C)(C)[C@@H]1CCC(C)=C[C@@H]21 [∆^9-THC, ∆^9-tetrahydrocannabinol, reference compound] on hCB2R (Homo sapiens, UniProt P34972)?
A: 65 ± 7.6 %

Q: What measured CB2R [^3H]CP55,940 Emin is associated with CC(C)C(NC(=O)c1nn(Cc2ccccc2F)c2ccccc12)C(N)=O (centres unmarked) on hCB2R (Homo sapiens, UniProt P34972)?
A: 17 ± 1.2%
